Please respond with reported AC50 for every item in the list.
- experiment: Luminescence Cell-Based Dose Retest to Confirm Inhibitors of Cancer Stem Cells. [Related pubchem assays (depositor defined):AID2717, AID2721];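 note: cells exposed to compound for roughly 70 hours or longer before luminescence read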
- Format: functional
- details: Homo sapiens
Activity calls are given as the source filed them. Cut-off read from the data, not from the text of the source: actives have a measured AC50 and inactives only a lower limit.

// query Please look up its AC50: COc1cc(NS(=O)(=O)c2ccc(N/C=C(\C#N)c3nc4cc(Cl)ccc4o3)cc2)nc(OC)n1
// result 2.08 µM (active)

// query Entry Cc1cc(C)cc(NC(=O)Nc2ccc(-n3ccc(C(F)(F)F)n3)cc2)c1 has what AC50?
// result 1.61 µM (active)

// query Look up AC50: O=C(Nc1ccc(OC(F)F)c(Cl)c1)Nc1ccc2c(c1)OCO2
// result 2.04 µM (active)

Would you mind giving AC50 for every compound in the list below?
1. C=C(C(=O)c1ccccc1)C(C)C(=C)C(=O)c1ccccc1
2. O=C1NC(=O)N(CCC2=CCCCC2)C(=O)/C1=C(O)/C=C/c1ccc2c(c1)OCO2
3. Cc1ccc(C)c(NC(=O)/C(C#N)=C/c2cn(CC(=O)NCc3ccco3)c3ccccc23)c1
4. NC(=O)CC(NC(=O)Cc1ccc(Br)cc1)c1ccc(NCc2cc(F)ccc2F)c([N+](=O)[O-])c1 (stereo not drawn)

// result
1. 2.33 µM (active)
2. 1.37 µM (active)
3. 57.8 µM (active)
4. 2.52 µM (active)

// query Using the record for CCOc1cc(NC(=O)c2ccccn2)c(OCC)cc1NC(=O)c1ccccc1 , report its AC50.
// result 24.4 µM (active)
